The measured values listed here are drawn from patent US20260234147A1.

# target: hDOR (Homo sapiens)
# Sequence (P41143 whole entry): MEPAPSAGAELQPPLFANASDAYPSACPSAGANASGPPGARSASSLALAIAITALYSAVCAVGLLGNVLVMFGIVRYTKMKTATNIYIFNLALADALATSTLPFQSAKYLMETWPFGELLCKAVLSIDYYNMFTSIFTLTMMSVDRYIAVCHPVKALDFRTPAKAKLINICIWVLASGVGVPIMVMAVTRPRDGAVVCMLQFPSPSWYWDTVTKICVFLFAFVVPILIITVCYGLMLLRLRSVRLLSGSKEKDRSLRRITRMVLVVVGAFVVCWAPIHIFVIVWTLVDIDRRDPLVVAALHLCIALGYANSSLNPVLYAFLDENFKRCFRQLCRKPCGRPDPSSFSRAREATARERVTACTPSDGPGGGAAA
# protocol_summary: Radioligand binding assay (Eurofins Cerep), [3H]DADLE displacement
# test_settings: Table 3-1; 3 independent experiments; read-out: Ki (nM ± SEM) DOR
Below is a list of entries, each paired with its recorded Ki value.

Example compounds with recorded Ki:
CO/C=C(/C(=O)OC)C1CCN(CCc2c[nH]c3ccccc23)CC1 = > 10000 nM
COC(=O)CC1CCN(CCc2c[nH]c3ccccc23)CC1 = > 10000 nM

Now consider the entry below.
Problem: # assay system hDOR (Homo sapiens): give Ki of "COC(=O)CC1CCN(CCc2c[nH]c3cccc(OC)c23)CC1"
Result: > 10000 nM

###

# target: hMOR (Homo sapiens, UniProt P35372)
# Sequence (P35372 whole entry): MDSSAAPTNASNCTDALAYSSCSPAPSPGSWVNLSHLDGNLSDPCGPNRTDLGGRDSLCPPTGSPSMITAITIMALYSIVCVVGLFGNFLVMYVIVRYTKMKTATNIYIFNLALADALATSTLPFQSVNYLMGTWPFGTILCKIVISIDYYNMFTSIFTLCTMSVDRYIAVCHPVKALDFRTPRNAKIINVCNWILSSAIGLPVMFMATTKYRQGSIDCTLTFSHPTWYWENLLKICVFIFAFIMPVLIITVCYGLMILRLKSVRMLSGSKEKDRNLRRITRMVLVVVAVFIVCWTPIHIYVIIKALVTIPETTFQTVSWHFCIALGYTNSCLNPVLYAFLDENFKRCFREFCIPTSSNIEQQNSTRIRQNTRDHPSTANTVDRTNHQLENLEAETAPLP
# protocol_summary: Radioligand binding assay (Eurofins Cerep), [3H]DAMGO displacement
# test_settings: Table B1′; read-out: MOR Ki ± SEM
pKi: −log10 of the molar value.
test_readout: pKi

Example compounds with recorded pKi:
COC(=O)C=C1CCN2CCC(O)(c3cccc(OC)c3)CC2C1 (stereo not drawn) [drawing 179] = < 5.00
COC(=O)C=C1CCN2CCC(O)(c3cccc(OC)c3)CC2C1 (stereo not drawn) [drawing 180] = < 5.00

Problem: Quote pKi reported for COC(=O)C=C1CCN2CCC(O)(c3ccccc3)CC2C1 (stereo not drawn) [drawing 176] please.
Result: < 5.00

###

# target: hKOR (Homo sapiens, UniProt P41145)
# Sequence (P41145 whole entry): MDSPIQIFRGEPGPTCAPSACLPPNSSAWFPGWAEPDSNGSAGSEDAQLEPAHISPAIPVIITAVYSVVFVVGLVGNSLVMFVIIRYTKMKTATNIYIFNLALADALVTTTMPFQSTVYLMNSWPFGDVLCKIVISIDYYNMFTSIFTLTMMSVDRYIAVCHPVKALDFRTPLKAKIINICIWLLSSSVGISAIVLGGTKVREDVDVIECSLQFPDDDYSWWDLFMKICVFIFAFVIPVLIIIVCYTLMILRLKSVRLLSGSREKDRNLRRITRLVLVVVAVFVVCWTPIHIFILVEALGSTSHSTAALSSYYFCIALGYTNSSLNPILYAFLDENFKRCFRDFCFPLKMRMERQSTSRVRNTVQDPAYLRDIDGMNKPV
# protocol_summary: Radioligand binding assay (Eurofins Cerep), [3H]U69,593 displacement
# test_settings: Table B1′; read-out: KOR Ki ± SEM
test_readout: Ki

Example compounds with recorded Ki:
COC(=O)CC1CCN2CCC(c3ccccc3OC)CC2C1 (stereo not drawn) [drawing 171] = > 10 µM
COC(=O)CC1CCN2CC=C(c3ccccc3OC)CC2C1 (stereo not drawn) = > 10 µM

Now consider the entry below.
Problem: Quote Ki reported for COc1ccccc1C1(O)CCN2CCC(=O)CC2C1 (stereo not drawn) please.
Result: > 10 µM

###

# target: hMOR (Homo sapiens)
# protocol_summary: Radioligand binding assay (Eurofins Cerep), [3H]DAMGO displacement
# test_settings: Table B1′; read-out: MOR Ki ± SEM
test_readout: Ki

Example molecules with recorded Ki:
COC(=O)CC1CCN2CCC(c3ccccc3OC)=CC2C1 (stereo not drawn) = > 10 µM
COC(=O)CC1CCN2CCC(c3ccccc3OC)CC2C1 (stereo not drawn) [drawing 171] = > 10 µM
COC(=O)C=C1CCN2CCC(O)(c3ccccc3OC)CC2C1 (stereo not drawn) [drawing 167] = > 10 µM
COC(=O)CC1CCN2CC=C(c3ccccc3OC)CC2C1 (stereo not drawn) = > 10 µM
COC(=O)CC1CCN2CCC(O)(c3ccccc3OC)CC2C1 (single isomer, unassigned) = > 10 µM

Now consider the entry below.
Problem: Quote Ki reported for COc1ccccc1C1(O)CCN2CCC(=O)CC2C1 (stereo not drawn) please.
Result: > 10 µM
